Target: CYP3A4 (Homo sapiens)
Construct: tissue XenoTech LLC Lot 0610351; host or cells: pooled human liver microsomes
Sequence (P08684 whole entry): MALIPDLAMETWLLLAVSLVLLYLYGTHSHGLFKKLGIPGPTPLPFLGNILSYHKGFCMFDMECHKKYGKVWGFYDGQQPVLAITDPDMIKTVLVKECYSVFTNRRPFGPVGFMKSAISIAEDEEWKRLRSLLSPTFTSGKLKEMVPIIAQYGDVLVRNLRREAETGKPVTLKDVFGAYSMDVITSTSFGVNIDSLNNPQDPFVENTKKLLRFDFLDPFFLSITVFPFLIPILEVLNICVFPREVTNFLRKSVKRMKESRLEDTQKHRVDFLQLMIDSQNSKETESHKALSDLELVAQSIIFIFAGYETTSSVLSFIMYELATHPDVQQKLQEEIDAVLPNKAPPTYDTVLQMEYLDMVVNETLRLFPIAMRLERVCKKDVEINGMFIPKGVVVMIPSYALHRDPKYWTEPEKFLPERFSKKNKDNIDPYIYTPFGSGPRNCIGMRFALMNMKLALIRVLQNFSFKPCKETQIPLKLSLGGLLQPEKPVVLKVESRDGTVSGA
Test: CYP3A4 inhibition assay (midazolam, pooled human liver microsomes)
Format: in vitro ADME
Conditions: pH 7.4, probe midazolam (2.5 μM), test compound 3 μM, human liver microsomes 0.1 mg/mL
Structures can show the parent of a compound that is named as a salt.
reported metric: inhibition at 10 min, 3 μM (%)

Look over these answered cases.
- molecule: "N[C@H](CNc1ncc(-c2ccc3cnc(F)cc3c2)s1)Cc1ccc(Cl)c(F)c1"
  inhibition at 10 min, 3 μM (%): 48
- molecule: "C[C@@H](c1ccc(C(F)(F)F)cc1)[C@H](N)CNc1ncc(-c2ccc3cnc(F)cc3c2)s1"
  inhibition at 10 min, 3 μM (%): 0

I. C[C@@H](c1ccc(C(F)(F)F)cc1)[C@H](N)CNc1ncc(-c2ccc3cnccc3c2)s1 [10′, reference compound]
II. N[C@H](CCc1ncc(-c2ccc3cnc(F)cc3c2)s1)[C@@H](O)c1ccc(C(F)(F)F)cc1 [Example 36, trifluoroacetate]
Endpoint returns the identifier whose inhibition at 10 min, 3 μM is numerically larger, either I or II . Indicate which entry you chose by stating its label.
I

====

Assay: In vivo pharmacokinetics, IV and oral gavage
Design: species or system male Sprague-Dawley rats
Conditions: Table 5; rat, PO 5 mg/kg, IV 2 mg/kg
reported metric: FPO (%)

Before answering, review these 3 worked examples.
- compound: "N[C@H](CNc1ncc(-c2ccc3cnc(F)cc3c2)s1)Cc1ccc(Cl)c(F)c1"
  FPO [%]: 65
- compound: "N[C@H](CNc1ncc(-c2ccc3cnccc3c2)s1)Cc1ccc(C(F)(F)F)cc1 [4′, reference compound]"
  FPO [%]: 27
- compound: "C[C@@H](c1ccc(C(F)(F)F)cc1)[C@H](N)CNc1ncc(-c2ccc3cnc(F)cc3c2)s1"
  FPO [%]: 61

A. CC(F)(F)c1ccc(C[C@H](N)CCc2ncc(-c3ccc4cnc(F)cc4c3)s2)cn1
B. CC(F)(F)c1ccc([C@H](O)[C@H](N)CNc2ncc(-c3ccc4cnccc4c3)s2)cc1 [38′, reference compound]
C. N[C@H](CNc1ncc(-c2ccc3cnc(F)cc3c2)s1)CN1CCC(C(F)(F)F)CC1
D. N[C@H](CCc1ncc(-c2ccc3cnccc3c2)s1)[C@@H](O)c1ccc(C(F)(F)F)cc1 [36′, reference compound]
Kindly order the items shown according to FPO, from the highest value down. Output spec: a listing of the labels in the requested order.
A, C, D, B

====

Experiment: In vivo pharmacokinetics, IV and oral gavage
Parameters: species or system male Sprague-Dawley rats
Conditions: male, Sprague-Dawley, plasma; rat, PO 5 mg/kg; read-out: Oral Cmax
Structures can show the parent of a compound that is named as a salt.
reported metric: Cmax (ng/mL)

Examples with their reported Cmax follow.
- molecule: "CC(F)(F)c1ccc([C@H](O)[C@H](N)CNc2ncc(-c3ccc4cnccc4c3)s2)cc1 [38′, reference compound]"
  reported metric: "Cmax"
  value measured: 13
- molecule: "CC(F)(F)c1ccc([C@H](O)[C@H](N)CNc2ncc(-c3ccc4cnc(F)cc4c3)s2)cc1 [Example 38, trifluoroacetate]"
  reported metric: "Cmax"
  value measured: 100
- molecule: "C[C@@H](c1ccc(C(F)(F)F)cc1)[C@H](N)CNc1ncc(-c2ccc3cnccc3c2)s1 [10′, reference compound]"
  reported metric: "Cmax"
  value measured: 73
- molecule: "N[C@H](CNc1ncc(-c2ccc3cnc(F)cc3c2)s1)Cc1ccc(C(F)(F)F)nc1 [Example 2]"
  reported metric: "Cmax"
  value measured: 302

I. N[C@H](CCc1ncc(-c2ccc3cnc(F)cc3c2)s1)[C@@H](O)c1ccc(C(F)(F)F)cc1 [Example 36, trifluoroacetate]
II. N[C@H](CNc1ncc(-c2ccc3cnc(F)cc3c2)s1)Cc1ccc(C(F)(F)F)cc1 [Example 4, trifluoroacetate]
I need your help: which of the pair I , II has higher Cmax? Answer by stating the label of the chosen item.
I

====

Assay: In vivo pharmacokinetics, IV and oral gavage
Set-up: species or system male Sprague-Dawley rats
Conditions: male, Sprague-Dawley, plasma; rat, IV 2 mg/kg; read-out: IV Cmax
Counter-ions that a name gives are not always drawn.
reported metric: Cmax (ng/mL)

- compound: "N[C@H](CCc1ncc(-c2ccc3cnc(F)cc3c2)s1)[C@@H](O)c1ccc(C(F)(F)F)cc1 [Example 36, trifluoroacetate]"
  value measured: 210
- compound: "CC(F)(F)c1ccc([C@H](O)[C@H](N)CNc2ncc(-c3ccc4cnc(F)cc4c3)s2)cc1 [Example 38, trifluoroacetate]"
  value measured: 473
- compound: "CC(F)(F)c1ccc(C[C@H](N)CCc2ncc(-c3ccc4cnc(F)cc4c3)s2)cn1"
  value measured: 165

a. N[C@H](CNc1ncc(-c2ccc3cnccc3c2)s1)Cc1ccc(Cl)c(F)c1 [44′, reference compound]
b. N[C@H](CNc1ncc(-c2ccc3cnccc3c2)s1)CN1CCC(C(F)(F)F)CC1 [Comparative Example 25′, reference compound]
c. COCc1nc(NC[C@@H](N)Cc2ccc(C(F)(F)F)cc2)sc1-c1ccc2cnccc2c1 [24′, reference compound]
Hey, quick one: sort these by Cmax, low to high? Dear reader, please state the labels in the requested order.
b, c, a
(b: 284 ng/mL, c: 465 ng/mL, a: 816 ng/mL)

a. CC(F)(F)c1ccc(C[C@H](N)CNc2ncc(-c3ccc4cnccc4c3)s2)cn1 [7′, reference compound]
b. N[C@H](CNc1ncc(-c2ccc3cnc(F)cc3c2)s1)Cc1ccc(Cl)c(F)c1
# argmax over Cmax for candidates a and b Answer with the label corresponding to your selection.
a
(a: 490 ng/mL, b: 292 ng/mL)

I. N[C@H](CCc1ncc(-c2ccc3cnccc3c2)s1)[C@@H](O)c1ccc(C(F)(F)F)cc1 [36′, reference compound]
II. N[C@H](CNc1ncc(-c2ccc3cnc(F)cc3c2)s1)Cc1ccc(C(F)(F)F)nc1
Param pair: I , II . Output: the one whose Cmax is numerically greater. // output: label of the selected item
II
(II: 531 ng/mL, I: 347 ng/mL)

P. C[C@@H](c1ccc(C(F)(F)F)cc1)[C@H](N)CNc1ncc(-c2ccc3cnccc3c2)s1 [10′, reference compound]
Q. COCc1nc(NC[C@@H](N)Cc2ccc(C(F)(F)F)nc2)sc1-c1ccc2cnc(F)cc2c1
// task: argmin of Cmax over [ P , Q ] Answer format: the label of the selected item.
Q
(Q: 422 ng/mL, P: 730 ng/mL)

====

Assay: In vivo pharmacokinetics, IV and oral gavage
Set-up: species or system male Sprague-Dawley rats
Settings: Table 5; rat, PO 5 mg/kg, IV 2 mg/kg
Counter-ions that a name gives are not always drawn.
reported metric: FPO (%)

Example compounds with recorded FPO:
- compound: "N[C@H](CNc1ncc(-c2ccc3cnc(F)cc3c2)s1)[C@@H](CO)c1ccc(C(F)(F)F)cc1"
  unit abbreviation: "%"
  FPO: 28
- compound: "COCc1nc(NC[C@@H](N)Cc2ccc(C(F)(F)F)cc2)sc1-c1ccc2cnccc2c1 [24′, reference compound]"
  unit abbreviation: "%"
  FPO: 14
- compound: "N[C@H](CNc1ncc(-c2ccc3cnccc3c2)s1)[C@@H](CO)c1ccc(C(F)(F)F)cc1 [33′, reference compound]"
  unit abbreviation: "%"
  FPO: 12
- compound: "N[C@H](CNc1ncc(-c2ccc3cnccc3c2)s1)CN1CCC(C(F)(F)F)CC1 [Comparative Example 25′, reference compound]"
  unit abbreviation: "%"
  FPO: 146

A. CC(F)(F)c1ccc(C[C@H](N)CNc2ncc(-c3ccc4cnc(F)cc4c3)s2)cn1
B. N[C@H](CNc1ncc(-c2ccc3cnc(F)cc3c2)s1)Cc1ccc(C(F)(F)F)cc1 [Example 4, trifluoroacetate]
Sorting ascending by FPO, which comes first: A or B ? Answer format: the label of the selected item.
B

====

Experiment: In vivo pharmacokinetics, IV and oral gavage
Set-up: species or system male Sprague-Dawley rats
Conditions: male, Sprague-Dawley, plasma; rat, IV 2 mg/kg; read-out: Vss
Counter-ions that a name gives are not always drawn.
reported metric: Vd (L/kg)

Consider the worked cases shown below.
- compound: "COCc1nc(NC[C@@H](N)Cc2ccc(C(F)(F)F)nc2)sc1-c1ccc2cnc(F)cc2c1 [Example 18]"
  Vd [L/kg]: 8.08
- compound: "CC(F)(F)c1ccc([C@H](O)[C@H](N)CNc2ncc(-c3ccc4cnccc4c3)s2)cc1 [38′, reference compound]"
  Vd [L/kg]: 6.67
- compound: "CC(F)(F)c1ccc([C@H](O)[C@H](N)CNc2ncc(-c3ccc4cnc(F)cc4c3)s2)cc1 [Example 38, trifluoroacetate]"
  Vd [L/kg]: 9.48

a. COCc1nc(NC[C@@H](N)Cc2ccc(C(F)(F)F)cc2)sc1-c1ccc2cnccc2c1 [24′, reference compound]
b. CC(F)(F)c1ccc(C[C@H](N)CNc2ncc(-c3ccc4cnc(F)cc4c3)s2)cn1 [Example 7]
Pick the one with the larger Vd: a vs b Refer to your chosen entry by its label in the reply.
a
(a: 10.2 L/kg, b: 6.22 L/kg)
